Measured EC50, listed per entry.
System: Tankyrases
test.conditions: read-out: EC50 [M] TNKS cellular assay; DLD1 cells, 24 hours, Axin2 increase
Counter-ions that a name gives are not always drawn.

compound: CC(C)n1cc(C(=O)C2CCN(C(=O)CCCc3nn4cc(F)cc4c(=O)[nH]3)CC2)cn1
assayed.target: Tankyrases
EC50 [M]: 2.7e-08
--
compound: Cc1scc2c(=O)[nH]c(CCCC(=O)N3CCC(c4cnc(N)c(C#N)c4)CC3)nc12 [Compound C115, trifluoroacetate]
assayed.target: Tankyrases
EC50 [M]: 4.9e-08
--
compound: CCc1cc(=O)[nH]c(CCCC(=O)N2CCC(C(=O)c3ccc(OC)cc3)CC2)n1
assayed.target: Tankyrases
EC50 [M]: 7e-08
--
compound: Cn1ncc2c(=O)[nH]c(CCCC(=O)N3CCC(c4cnc(N)c(-c5ncccn5)c4)CC3)nc21
assayed.target: Tankyrases
EC50 [M]: 4.9e-10
--
compound: N#Cc1ccc(OC2CCN(C(=O)CCCc3nc4c(c(=O)[nH]3)COCC4)CC2)cc1
assayed.target: Tankyrases
EC50 [M]: 3.6e-06
--
compound: COc1ccc(C(=O)C2CCN(C(=O)CCCc3nc(C)c(C)c(=O)[nH]3)CC2)cc1
assayed.target: Tankyrases
EC50 [M]: 1.5e-08
--
compound: Cn1cc(C(=O)C2CCN(C(=O)CCCc3nn4c(F)c(F)cc4c(=O)[nH]3)CC2)cn1
assayed.target: Tankyrases
EC50 [M]: 5.6e-08
--
compound: Cc1cc2c(=O)[nH]c(CCCC(=O)N3CCC(c4cnc(N)c(-c5ncccn5)c4)CC3)nn2c1
assayed.target: Tankyrases
EC50 [M]: 9.7e-09
--
compound: Cc1scc2c(=O)[nH]c(CCCC(=O)N3CCC(C(=O)c4cnn(C(C)C)c4)CC3)nc12
assayed.target: Tankyrases
EC50 [M]: 2.5e-08
--
compound: COc1ccc(C(=O)C2CCN(C(=O)CCCc3cn4c(Cl)ccc4c(=O)[nH]3)CC2)cc1
assayed.target: Tankyrases
EC50 [M]: 9e-10
--
compound: COc1ccc(C(=O)C2CCN(C(=O)CCCc3cn4c(C)ncc4c(=O)[nH]3)CC2)cc1
assayed.target: Tankyrases
EC50 [M]: 1.5e-09
--
compound: Cc1csc2c(=O)[nH]c(CCCC(=O)N3CCC(C(=O)c4cnn(C)c4)CC3)nc12
assayed.target: Tankyrases
EC50 [M]: 3.9e-08
--
compound: Cc1csc2c(=O)[nH]c(CCCC(=O)N3CCC(Oc4ccc(C#N)cc4)CC3)nc12
assayed.target: Tankyrases
EC50 [M]: 3.3e-08
--
compound: COc1ccc(C(=O)C2CCN(C(=O)CCCc3cn4nc(C)cc4c(=O)[nH]3)CC2)cn1
assayed.target: Tankyrases
EC50 [M]: 5.4e-09
--
compound: Cc1ccc2c(=O)[nH]c(CCCC(=O)N3CCC(c4cnc(N)c(-c5ncccn5)c4)CC3)nn12
assayed.target: Tankyrases
EC50 [M]: 1.1e-09
--
compound: N#Cc1cc(C2CCN(C(=O)CCCc3nc4c(c(=O)[nH]3)CCCC4)CC2)cnc1N
assayed.target: Tankyrases
EC50 [M]: 5.6e-08
--
compound: Nc1ncc(C2CCN(C(=O)CCCc3nn4cc(F)cc4c(=O)[nH]3)CC2)cc1-c1ncccn1
assayed.target: Tankyrases
EC50 [M]: 6.8e-09
--
compound: COc1ccc(C(=O)C2CCN(C(=O)CCCc3nc4c(cnn4C)c(=O)[nH]3)CC2)cc1F
assayed.target: Tankyrases
EC50 [M]: 4.8e-09
--
compound: COc1ccc(C(=O)C2CCN(C(=O)CCCc3cn4cccc4c(=O)[nH]3)CC2)cn1
assayed.target: Tankyrases
EC50 [M]: 1.5e-09
--
compound: Cc1csc2c(=O)[nH]c(CCCC(=O)N3CCC(c4cnc(N)c(-c5ncccn5)c4)CC3)nc12
assayed.target: Tankyrases
EC50 [M]: 3.3e-09
--
compound: Cc1ccc2c(=O)[nH]c(CCCC(=O)N3CCC(C(=O)c4ccc(C(C)(C)O)cc4)CC3)nn12
assayed.target: Tankyrases
EC50 [M]: 1.6e-08
--
compound: COc1ccc(C(=O)C2CCN(C(=O)CCCc3nc4c(ccn4C)c(=O)[nH]3)CC2)cc1
assayed.target: Tankyrases
EC50 [M]: 3.2e-09
--
compound: O=C(c1ccc(Cl)cc1)C1CCN(C(=O)CCCc2nc3c(c(=O)[nH]2)COCC3)CC1 [Compound C247, trifluoroacetate]
assayed.target: Tankyrases
EC50 [M]: 2.1e-08
--
compound: Cc1cc2c(=O)[nH]c(CCCC(=O)N3CCC(C(=O)c4cnn(C(C)C)c4)CC3)nn2c1
assayed.target: Tankyrases
EC50 [M]: 4e-08
--
compound: COc1ccc(C(=O)C2CCN(C(=O)CCCc3nn4cc(F)cc4c(=O)[nH]3)CC2)cc1F
assayed.target: Tankyrases
EC50 [M]: 2.5e-09
--
compound: COc1ccc(C(=O)C2CCN(C(=O)CCCc3nn4cccc4c(=O)[nH]3)CC2)cc1
assayed.target: Tankyrases
EC50 [M]: 4.1e-09
--
compound: COc1ccc(C(=O)C2CCN(C(=O)CCCc3nn4cccc4c(=O)[nH]3)CC2)cc1F
assayed.target: Tankyrases
EC50 [M]: 3.6e-09
--
compound: N#Cc1ccc(OC2CCN(C(=O)CCCc3nn4cccc4c(=O)[nH]3)CC2)cc1
assayed.target: Tankyrases
EC50 [M]: 6.8e-07
--
compound: Cc1ccc2c(=O)[nH]c(CCCC(=O)N3CCC(C(=O)c4ccc(F)cc4)CC3)nn12
assayed.target: Tankyrases
EC50 [M]: 1.7e-09
--
compound: O=C(c1ccc(F)cc1)C1CCN(C(=O)CCCc2nc3c(c(=O)[nH]2)COCC3)CC1
assayed.target: Tankyrases
EC50 [M]: 7.5e-08
